- ASSAYED_TARGET: hKv7.2/hKv7.3 (Homo sapiens, UniProt O43525+O43526)
- Construct: P2A self-cleaving linker (remnant after ribosomal skipping); vector pcDNA5/FRT/TO
- TEST_NAME: Thallium influx assay for potassium channel activation
- EXPERIMENTAL_PARAMETERS: HEK-hKv7.2/hKv7.3 cells; AUC readout normalized to a reference compound
MEASURED_PARAMETER: EC50 (nM)
Give the quantity in nM, number only.

# annotated cases, reported EC50 shown
C[C@H](NC(=O)CC(C)(O)C(F)(F)C(F)F)c1cccc(OC(F)(F)F)c1 (single isomer, unassigned) [Example 10a]; 650
C[C@H](NC(=O)C[C@@](C)(O)CC(F)(F)F)c1cccc(OC(F)(F)F)c1 (single isomer, unassigned) [Example 13a]; 1900

Would you kindly look at the next entry?
Data request: Quick one: give measured EC50 for C[C@H](NC(=O)C[C@H](O)C1CC(F)(F)C1)c1cccc(OC(F)(F)F)c1 [Example 11a]
Data returned: 1500
